Data provenance is paper PMC8892280.

Target or test system: full-length human LRRK2 (leucine-rich repeat kinase 2) (human, UniProt Q5S007)
Sequence (Q5S007 whole entry): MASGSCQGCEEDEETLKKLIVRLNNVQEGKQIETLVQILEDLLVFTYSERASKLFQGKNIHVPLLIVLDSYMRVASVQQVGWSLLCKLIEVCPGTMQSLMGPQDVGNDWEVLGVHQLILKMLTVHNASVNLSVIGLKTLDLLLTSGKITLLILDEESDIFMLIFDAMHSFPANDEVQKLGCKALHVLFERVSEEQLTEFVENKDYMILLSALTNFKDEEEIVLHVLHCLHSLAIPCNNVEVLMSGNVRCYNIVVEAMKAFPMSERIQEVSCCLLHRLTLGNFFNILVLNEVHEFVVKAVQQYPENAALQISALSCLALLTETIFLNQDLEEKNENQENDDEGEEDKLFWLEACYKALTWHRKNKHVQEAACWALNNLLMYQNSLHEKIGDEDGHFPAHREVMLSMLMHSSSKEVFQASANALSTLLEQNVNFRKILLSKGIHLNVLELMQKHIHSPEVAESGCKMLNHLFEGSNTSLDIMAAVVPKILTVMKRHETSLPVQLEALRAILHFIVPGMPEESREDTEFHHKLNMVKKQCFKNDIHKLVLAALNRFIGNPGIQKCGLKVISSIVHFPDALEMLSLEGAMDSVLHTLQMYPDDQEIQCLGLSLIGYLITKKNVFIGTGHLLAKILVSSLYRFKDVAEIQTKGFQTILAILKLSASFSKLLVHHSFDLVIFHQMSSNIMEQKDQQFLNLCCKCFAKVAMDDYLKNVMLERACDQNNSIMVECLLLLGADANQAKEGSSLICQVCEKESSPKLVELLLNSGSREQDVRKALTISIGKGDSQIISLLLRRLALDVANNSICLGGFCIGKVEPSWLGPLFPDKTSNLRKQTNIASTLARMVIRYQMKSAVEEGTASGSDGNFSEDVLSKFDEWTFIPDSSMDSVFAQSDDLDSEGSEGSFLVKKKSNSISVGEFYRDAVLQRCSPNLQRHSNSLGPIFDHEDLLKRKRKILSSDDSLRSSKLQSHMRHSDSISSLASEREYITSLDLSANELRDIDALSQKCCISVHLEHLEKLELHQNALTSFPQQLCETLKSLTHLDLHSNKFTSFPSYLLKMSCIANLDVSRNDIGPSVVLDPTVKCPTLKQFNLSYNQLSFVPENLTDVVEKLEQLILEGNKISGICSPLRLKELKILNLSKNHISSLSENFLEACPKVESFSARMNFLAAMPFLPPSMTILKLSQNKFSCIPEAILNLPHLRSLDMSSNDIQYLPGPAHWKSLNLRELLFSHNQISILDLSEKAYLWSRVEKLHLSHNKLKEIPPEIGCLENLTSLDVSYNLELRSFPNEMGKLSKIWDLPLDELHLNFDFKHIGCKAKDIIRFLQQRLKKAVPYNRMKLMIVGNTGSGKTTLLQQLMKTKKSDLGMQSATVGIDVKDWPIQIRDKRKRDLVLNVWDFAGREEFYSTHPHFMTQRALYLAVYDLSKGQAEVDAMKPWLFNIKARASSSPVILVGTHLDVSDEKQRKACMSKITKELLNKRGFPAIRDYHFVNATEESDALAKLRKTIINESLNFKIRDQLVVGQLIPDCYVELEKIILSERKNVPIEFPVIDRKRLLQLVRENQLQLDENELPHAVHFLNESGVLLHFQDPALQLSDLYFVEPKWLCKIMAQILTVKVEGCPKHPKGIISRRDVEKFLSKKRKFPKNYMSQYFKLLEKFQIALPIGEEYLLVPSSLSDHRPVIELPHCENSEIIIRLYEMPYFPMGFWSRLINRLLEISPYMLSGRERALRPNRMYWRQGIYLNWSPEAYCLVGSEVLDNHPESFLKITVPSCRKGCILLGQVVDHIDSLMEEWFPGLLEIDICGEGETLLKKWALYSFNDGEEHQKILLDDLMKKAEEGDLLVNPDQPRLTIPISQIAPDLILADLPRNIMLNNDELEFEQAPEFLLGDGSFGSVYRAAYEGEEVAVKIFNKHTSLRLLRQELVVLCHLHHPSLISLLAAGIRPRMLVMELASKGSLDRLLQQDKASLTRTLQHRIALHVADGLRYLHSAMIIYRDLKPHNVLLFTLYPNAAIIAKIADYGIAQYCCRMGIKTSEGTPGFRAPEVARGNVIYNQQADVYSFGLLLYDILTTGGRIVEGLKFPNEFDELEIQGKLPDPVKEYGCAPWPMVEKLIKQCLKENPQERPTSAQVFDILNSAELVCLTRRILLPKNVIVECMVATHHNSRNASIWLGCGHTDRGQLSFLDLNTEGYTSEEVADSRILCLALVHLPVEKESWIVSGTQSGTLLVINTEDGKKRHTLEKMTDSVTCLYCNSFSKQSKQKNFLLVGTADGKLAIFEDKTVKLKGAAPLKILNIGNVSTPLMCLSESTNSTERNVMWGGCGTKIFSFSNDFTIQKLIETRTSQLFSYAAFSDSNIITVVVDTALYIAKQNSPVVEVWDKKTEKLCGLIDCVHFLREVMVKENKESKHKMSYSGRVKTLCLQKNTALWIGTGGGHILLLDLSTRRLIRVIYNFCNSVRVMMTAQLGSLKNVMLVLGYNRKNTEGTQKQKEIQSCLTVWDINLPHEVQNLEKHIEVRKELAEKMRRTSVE
Measurement protocol: MST
Reported endpoint: Kd (nM)
Numbers only, in nM.

Worked examples, 3 binders total:
m-TAMRA-labeled Nb40 (VHH) VHH: QVQLVESGGGLVQPGGSLRLSCVASGTIYAINRMGWYRQAPGKQRELVALITLGGGTNYGDSVKGRFTISRDNAKNTGYLQMNSLKPEDTAVYYCKVESSGYTDVFWGQGTQVTVSS : 26
m-TAMRA-labeled Nb1 (VHH) VHH: QVQLVESGGGLVQAGGSLRLSCVASGRIFSGNAMGWYRQAPGRQRELVAGITNGGYTNYRQFVKGRFTISRDNAKRTVYLQMNSLKPEDTAVYYCNALDREARQVDYWGQGTQVTVSS : 91
m-TAMRA-labeled Nb6 (VHH) VHH: QVQLVESGGGLVQAGGSLRLSCAASGSIFSPTAMGWYRQAPGKERELVAGITSGGYTNYRNFARGRFTISRDNAKKTVYLQMNSLNPEDTAVYYCNTLTISWSWGQGTQVTVSS : 83

Problem: // Kd lookup, key: m-TAMRA-labeled Nb22 (VHH) VHH: QVQLVESGGGLVQAGGSLRLSCAASGRTFSSYTMGWFRQAPGKEREFVAAIRWSGGSTYYADSVKGRFTISRDNAKNTVYLQMNSLKPEDTAVYYCAASDRGGFIATSGGWMDYWGKGTQVTVSS
Result: 145
